Test system: neutrophils in the peripheral blood
measurementDescription: number of neutrophils in peripheral blood, Siemens Advia 120 (Examples 4, 5)
Format: in vivo, C57/BL6 mice
particulars: 200 μl of 1% solution i.p., blood 16 hr later, vs saline
measuredAttribute: neutrophils in the peripheral blood (number)

Field: example entries. Status: answers known.
1. CSC1CSC=N1 (stereo not drawn)	increase
2. CCc1nccnc1CC	increase
3. c1ccc2sccc2c1	increase
4. C=C(C)CN=C=S [Methallyl isothiocyanate]	increase

Exam item: Entry S=C=NCc1ccccc1 [Benzyl isothiocyanate] has what neutrophils in the peripheral blood (number)?
Marked response: increase

Exam item: What value of neutrophils in the peripheral blood (number) has been reported for the following molecule? CC1CNCCS1 (stereo not drawn)
Marked response: increase

Exam item: Can you look up the measured neutrophils in the peripheral blood (number) of "Clc1ccsc1" for me?
Marked response: increase

Exam item: Give its neutrophils in the peripheral blood (number) value. Item: CSCCCN=C=S [3-(Methylthio)propyl isothiocyanate]
Marked response: increase

Exam item: Recorded neutrophils in the peripheral blood (number) of "O=C1CSC(=O)N1" , please.
Marked response: increase

Exam item: Return reported neutrophils in the peripheral blood (number); argument: "Cc1nc(C(C)(C)C)cs1"
Marked response: increase

Exam item: Looking for the measured neutrophils in the peripheral blood (number) of "CSC1=NCCS1" , can you help?
Marked response: increase

Exam item: Which value of neutrophils in the peripheral blood (number) has been reported for C=CCN=C=S [Allyl isothiocyanate] in the records?
Marked response: increase

Provenance of the data: patent US20230149420A1
